# Tested on: IL-2 production
# ASSAY DETAILS: IL-2 production from Con A activated T-cells (ELISA)
# Format: cell-based, murine
# CONDITION INFO: Mus musculus, T-cell, read-out: Inhibitory activity against IL-2 production, IC50
MEASURED ATTRIBUTE: IC50 (nM)

CC(=Cc1cc(O)c(C(C)C)c(O)c1)c1ccccc1 :: 400

(1) CC(=Cc1cc(O)cc(O)c1)c1ccccc1
(2) CC(C)c1c(O)cc(C=Cc2cccs2)cc1O
[ask] # return whichever of 1 and 2 has the smaller IC50 API: response body contains the label of the selected item.
[reply] 2

###

# Tested on: IL-2 production
# ASSAY DETAILS: IL-2 production from Con A activated T-cells (ELISA)
# Assay type: cell-based, murine
# CONDITION INFO: read-out: Inhibitory activity against IL-2 production, IC50
MEASURED ATTRIBUTE: IC50 (nM)
The reply should contain only the number, in nM.

[ask] Item under review: `CC(C)c1c(O)cc(C(C#N)=Cc2ccccc2)cc1O` . Reported IC50?
[reply] 130
